Test system: H358 cells
Assay: Antiproliferative activity against H358 cells (Cell Titer Glow, ultra-low attachment plate)
Format: cell-based
Conditions: Homo sapiens, NCI-H358, 72 h, three days after addition of compound
Parameter: IC50. Scope: all listed entries.

Which IC50 value belongs to C=CC(=O)N1CC2(CCN(c3nc(N4CC(COC5CN(C)C5)C4)nc4c(OCC(F)(F)F)c(-c5c(C)ccc6[nH]ncc56)c(C5CC5)cc34)CC2)C1 ?
< 300 nM

Return reported IC50; argument: C=CC(=O)N1CC2(CCN(c3nc(N4CC(S(=O)(=O)N5CC(N(C)C)C5)C4)nc4c(OCC(F)(F)F)c(-c5c(C)ccc6[nH]ncc56)c(C5CC5)cc34)CC2)C1
300 to 1000 nM

// IC50 lookup, key: C=CC(=O)N1CC2(CCN(c3nc(N4CC(OCC5CC5)C4)nc4c(OCC(F)(F)F)c(-c5c(C)ccc6[nH]ncc56)c(C5CC5)cc34)CC2)C1
< 300 nM

// returns reported IC50 for input C=CC(=O)N1CC2(CCN(c3nc(N4CC5(CC(O)CN5C)C4)nc4c(OCC(F)(F)F)c(-c5c(C)ccc6[nH]ncc56)c(C5CC5)cc34)CC2)C1 (stereo not drawn)
< 300 nM

Looking for the measured IC50 of C=CC(=O)N1CC2(CCN(c3nc(N4CC(N5CCC6(CC5)CC6)C4)nc4c(OCC(F)(F)F)c(-c5c(C)ccc6[nH]ncc56)c(C5CC5)cc34)CC2)C1 , can you help?
300 to 1000 nM

Pending molecule:
So what does the record say about IC50 for C=CC(=O)N1CC2(CCN(c3nc(N4CC(OCC5COC5)C4)nc4c(OCC(F)(F)F)c(-c5c(C)ccc6[nH]ncc56)c(C5CC5)cc34)CC2)C1 ?
< 300 nM
